- System under test: T1, recombinant human HER2 extracellular domain protein (human, UniProt P04626 23-652)
- T1 construct: range 23-652; Range is printed for the immunogen/panning protein; also called ErbB2; recombinant HER2 protein
- Run description: BLI, Protein A capture
Quantity: kon (M⁻¹ s⁻¹)
# unit: M⁻¹ s⁻¹ | format: bare number

Solved cases below.
[[record]]
binder = "Hu2117HK-Mu49 (Fc fusion, scFv-hIgG1 Fc; not shown: human IgG1 Fc) scFv: EVQLVESGGGLVQPGGSLRLSCAASGFTYSSYGMSWVRQAPGKGLEWVASISGGGSYTKYPDSVKGRFTISRDNSKNTLYLQMNSLRAEDTAVYYCARDYSGFFDVWGQGTLVTVSSGGGGSGGGGSGGGGSDIQMTQSPSSLSASVGDRVTITCRSSQSLVHSNGNTYLHWYQQKPGKAPKLLIYKVSNRFSGVPSRFSGSGSGTDFTLTISSLQPEDFATYFCSQSTHVPYTFGQGTKVEIK"
readout_unit = "M⁻¹ s⁻¹"
recorded_value = 64500

[[record]]
binder = "Hu2117HK-Mu43 (Fc fusion, name in Kabat numbering, scFv-hIgG1 Fc; not shown: human IgG1 Fc) scFv: EVQLVESGGGLVQPGGSLRLSCAASGFTYSSYGMSWVRQAPGKGLEWVASISGGGSYTKYPDSVKGRFTISRDNSKNTLYLQMNSLRAEDTAVYYCARDYDGFFDVWGQGTLVTVSSGGGGSGGGGSGGGGSDIQMTQSPSSLSASVGDRVTITCRSSQSLVHSNGNTYLHWYQQKPGKAPKLLIYKVSNRFSGVPSRFSGSGSGTDFTLTISSLQPEDFATYFCSQSTHVPYTFGQGTKVEIK"
readout_unit = "M⁻¹ s⁻¹"
recorded_value = 71700

[[record]]
binder = "Hu2117HK-Mu09 (Fc fusion, scFv-hIgG1 Fc; not shown: human IgG1 Fc) scFv: EVQLVESGGGLVQPGGSLRLSCAASGFTYSSYGMSWVRQAPGKGLEWVASISGGGSYTKYGDSVKGRFTISRDNSKNTLYLQMNSLRAEDTAVYYCARDYAGFFDVWGQGTLVTVSSGGGGSGGGGSGGGGSDIQMTQSPSSLSASVGDRVTITCRSSQSLVHSNGNTYLHWYQQKPGKAPKLLIYKVSNRFSGVPSRFSGSGSGTDFTLTISSLQPEDFATYFCSQSTHVPYTFGQGTKVEIK"
readout_unit = "M⁻¹ s⁻¹"
recorded_value = 73400


With those in mind, consider the next binder.
Item: Hu2117HK-Mu48 (Fc fusion, scFv-hIgG1 Fc; not shown: human IgG1 Fc) scFv: EVQLVESGGGLVQPGGSLRLSCAASGFTYSSYGMSWVRQAPGKGLEWVASISGGGSYTKYPDSVKGRFTISRDNSKNTLYLQMNSLRAEDTAVYYCARDYRGFFDVWGQGTLVTVSSGGGGSGGGGSGGGGSDIQMTQSPSSLSASVGDRVTITCRSSQSLVHSNGNTYLHWYQQKPGKAPKLLIYKVSNRFSGVPSRFSGSGSGTDFTLTISSLQPEDFATYFCSQSTHVPYTFGQGTKVEIK | kon: 97900

The measurements presented in this section are drawn from patent EP4725969A1.
